tested on: NCI-H23 cells; assay: MTT anti-proliferative assay, NCI-H23; format: cell-based, human; conditions: Homo sapiens, NCI-H23, 48 h, mean ± SD of three experiments
pIC50: −log10 of the molar value.
Observation Type: pIC50

{"columns": ["Compound", "Assay Value"],
 "data": [
  ["COc1cccc(C=NNC(=O)c2oc3ccccc3c2C)c1", 4.83],
  ["COc1ccc(C=NNC(=O)c2oc3ccccc3c2C)cc1", 5.21],
  ["COc1cccc(NC(=O)NNC(=O)c2oc3ccccc3c2C)c1", 4.25],
  ["COc1cccc(NC(=S)NNC(=O)c2oc3ccccc3c2C)c1", 4.47],
  ["COc1ccc(NC(=S)NNC(=O)c2oc3ccccc3c2C)cc1", 5.23],
  ["COc1cccc(NC(=O)NNC(=O)c2oc3ccccc3c2CN2CCOCC2)c1 [Compound 16a]", 6.31]
]}

1. COc1ccc(NC(=O)NNC(=O)c2oc3ccccc3c2CN2CCOCC2)cc1 [Compound 16b]
2. Cc1c(C(=O)NNC(=S)Nc2ccc(F)cc2)oc2ccccc12
query: Of 1 versus 2 , which is the one with smaller reported pIC50? Your answer should be the label of the entry you select.
result: 2

Data credit: paper PMC8128204
